- System: OVCAR-8 ovarian
- Test Description: NCI-60 one-dose screen, 48 h
- Condition Set: 10 µM unless noted
About 83,000 compounds went through this panel and 20% of them were active in at least one assay; those are over-represented in the sample as a whole. Active and inactive are the calls of the source. How the source made its calls: active means growth percent below 10; inactive means the rest.
Returns: one label drawn from label 1 (active), label 0 (inactive)

Observe how each entry below is paired with its result.
[[record]]
molecule = "COC(=O)C(OC(C)=O)C(OC(C)=O)c1ccc(OC)c(OC)c1 (stereo not given)"
group_label = "label 0"

[[record]]
molecule = "CCOC(=O)Oc1c(OC)cc(C(=O)c2ccc(OC)c(O)c2OC)cc1OC"
group_label = "label 0"

[[record]]
molecule = "COc1cc2nc(-c3ccc(C(F)(F)F)cc3)cc(OCCCN3CCCC3)c2cc1OC"
group_label = "label 0"


Exam item: Each molecule tested received a call. Report the one for COc1ccc(/C=C2\COc3ccc(-c4ccccc4)cc3C2=O)c(OC)c1 .
Marked response: label 0

Exam item: Each molecule tested received a call. Report the one for C=C(C)[C@@H]1CC[C@]2(CN)CC[C@]3(C)[C@H](CC[C@@H]4[C@@]5(C)CCCNC(C)(C)[C@@H]5CC[C@]43C)[C@@H]12 .
Marked response: label 1
